# Test system: Escherichia coli IAI1
# procedure.text: fold change of Putrescine concentration vs plate DMSO controls (fold change (ratio)); higher = more amine produced, active = hit call of the paper (significant change in both replicates, either direction)
# cond: incubation time: 27 h, anaerobic, 37 °C
Counter-ions that a name gives are not always drawn.
Reported fold change of Putrescine concentration values are given for each entry in this list.

compound | fold change of Putrescine concentration
Cc1ccc(S(=O)(=O)NCl)cc1 [Chloramine-T hydrate] (20 µM) | 1.01
CC(CNC1CCCCC1)OC(=O)c1ccccc1 (stereo not given) [Hexylcaine hydrochloride] (20 µM) | 1
Cc1cc(=O)oc2cc(O)ccc12 [Hymecromone] (20 µM) | 1
CC1CC(OC(=O)c2ccccc2O)CC(C)(C)C1 (stereo not given) [Homosalate] (20 µM) | 1.23
NC(CO)C(=O)NNCc1ccc(O)c(O)c1O (stereo not given) [Benserazide hydrochloride] (20 µM) | 1.19
CC(=O)Nc1ccc(O)cc1 [Acetaminophen] (20 µM) | 1.01
CC(C)NCC(O)c1ccc(NS(C)(=O)=O)cc1 (stereo not given) [Sotalol hydrochloride] (20 µM) | 0.935
COc1cc2nc(N3CCN(C(=O)C4CCCO4)CC3)nc(N)c2cc1OC (stereo not given) [Terazosin hydrochloride] (20 µM) | 0.936
CN(C)CCN(Cc1cccs1)c1ccccn1 [Methapyrilene hydrochloride] (20 µM) | 0.892
CCCSS/C(CCO)=C(/C)N(C=O)Cc1cnc(C)nc1N [Prosultiamine] (20 µM) | 0.949
CC(=O)Nc1ccc(OCC(O)CNC(C)C)cc1 (stereo not given) [Practolol] (20 µM) | 1.04
C/C(=C(\CCOC(=O)c1ccccc1)SS/C(CCOC(=O)c1ccccc1)=C(/C)N(C=O)Cc1cnc(C)nc1N)N(C=O)Cc1cnc(C)nc1N [Bisbentiamine] (20 µM) | 0.998
CCOc1cc(CC(=O)N[C@@H](CC(C)C)c2ccccc2N2CCCCC2)ccc1C(=O)O [Repaglinide] (20 µM) | 1.14
CC[C@@H]1C(=O)OC[C@@H]1Cc1cncn1C [Pilocarpine nitrate] (20 µM) | 1.02
CCCc1nn(C)c2c(=O)[nH]c(-c3cc(S(=O)(=O)N4CCN(C)CC4)ccc3OCC)nc12 [Sildenafil] (20 µM) | 0.921
NC(=O)N/N=C/c1ccc([N+](=O)[O-])o1 [Nitrofural] (20 µM) | 0.6
Cc1cc(-n2c(=O)[nH]c(=O)n(C)c2=O)ccc1Oc1ccc(SC(F)(F)F)cc1 [Toltrazuril] (20 µM) | 1.01
CC1COc2ccccc2N1C(=O)C(Cl)Cl (stereo not given) (20 µM) | 0.986
CC#CCn1c(N2CCC[C@@H](N)C2)nc2c1c(=O)n(Cc1nc(C)c3ccccc3n1)c(=O)n2C [Linagliptin] (20 µM) | 1.01
COc1cc([C@@H]2c3cc4c(cc3[C@@H](O[C@@H]3O[C@@H]5CO[C@@H](C)O[C@H]5[C@H](O)[C@H]3O)[C@H]3COC(=O)[C@H]23)OCO4)cc(OC)c1O [Etoposide] (20 µM) | 1.08

* * *

# System: Ruminococcus gnavus DSM 108212
# procedure.text: fold change of Tryptamine concentration vs plate DMSO controls (fold change (ratio)); higher = more amine produced, active = hit call of the paper (significant change in both replicates, either direction)
# cond: incubation time: 27 h, anaerobic, 37 °C
Structures can show the parent of a compound that is named as a salt.
assay.metric: fold change of Tryptamine concentration

molecule | reported.value
CC(CN(C)C)CN1c2ccccc2Sc2ccccc21 (stereo unspecified) [Trimeprazine tartrate] (20 µM) | 0.804
COc1cccc2c1C(=O)c1c(O)c3c(c(O)c1C2=O)C[C@@](O)(C(C)=O)C[C@@H]3O[C@H]1C[C@H](N)[C@H](O)[C@H](C)O1 [Daunorubicin hydrochloride] (20 µM) | 0.986
O=C(NC1CCN(CCCCC2(C(=O)NCC(F)(F)F)c3ccccc3-c3ccccc32)CC1)c1ccccc1-c1ccc(C(F)(F)F)cc1 [Lomitapide] (20 µM) | 0.709
CC(C(=O)O)c1cccc(C(=O)c2ccccc2)c1 (stereo unspecified) [Ketoprofen] (20 µM) | 1.06
CC1(C)[C@H](C(=O)O)N2C(=O)C[C@H]2S1(=O)=O [Sulbactam] (20 µM) | 1.07
CC1(C)S[C@@H]2[C@H](NC(=O)[C@H](NC(=O)N3CCNC3=O)c3ccccc3)C(=O)N2[C@H]1C(=O)O [Azlocillin sodium salt] (20 µM) | 0.0374

* * *

# System: Escherichia coli IAI1
# procedure.text: fold change of Cadaverine concentration vs plate DMSO controls (fold change (ratio)); higher = more amine produced, active = hit call of the paper (significant change in both replicates, either direction);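 for the amine columns active = adjusted P below 0.05 in both replicates with a change the same way and a mean fold change under 0.8 or over 1.25; inactive = the rest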
# cond: incubation time: 27 h, anaerobic, 37 °C
Where a name gives a salt, the structure may show the parent alone.
Classes used: active, inactive

compound | group
CC(=O)Oc1cccc2c1C(=O)c1c(OC(C)=O)cc(C(=O)O)cc1C2=O [Diacerein] (20 µM) | inactive
CC/C(=C(\c1ccccc1)c1ccc(OCCN(C)C)cc1)c1ccccc1 [Tamoxifen citrate] (20 µM) | inactive
CCOC(=O)Nc1ccc(NCc2ccc(F)cc2)nc1N [Flupirtine] (20 µM) | inactive
CCCCC1C(=O)N(c2ccccc2)N(c2ccccc2)C1=O [Phenylbutazone] (20 µM) | inactive
CCC(C)n1ncn(-c2ccc(N3CCN(c4ccc(OCC5COC(Cn6cncn6)(c6ccc(Cl)cc6Cl)O5)cc4)CC3)cc2)c1=O (stereo unspecified) [Itraconazole] (20 µM) | inactive
N=C(N)NC(=O)c1nc(Cl)c(N)nc1N [Amiloride hydrochloride dihydrate] (20 µM) | inactive
CC(=O)OCC(=O)[C@@]1(O)CC[C@H]2[C@@H]3CCC4=CC(=O)C=C[C@]4(C)[C@@]3(Cl)[C@@H](Cl)C[C@@]21C [Dichlorisone acetate] (20 µM) | inactive
CC(C(=O)O)c1ccc2c(c1)[nH]c1ccc(Cl)cc12 (stereo unspecified) [Carprofen] (20 µM) | inactive
C=CCOC(Cn1ccnc1)c1ccc(Cl)cc1Cl (stereo unspecified) (20 µM) | inactive
CC(C)C(=O)OCC(=O)[C@@]12O[C@H](C3CCCCC3)O[C@@H]1C[C@H]1[C@@H]3CCC4=CC(=O)C=C[C@]4(C)[C@H]3[C@@H](O)C[C@@]12C [Ciclesonide] (20 µM) | inactive
O=C(c1cc(O)c(O)c(O)c1)c1ccc(O)c(O)c1O [Exifone] (20 µM) | inactive
CC[C@H]1OC(=O)[C@H](C)[C@@H](O[C@H]2C[C@@](C)(OC)[C@@H](O)[C@H](C)O2)[C@H](C)[C@@H](O[C@@H]2O[C@H](C)C[C@H](N(C)C)[C@H]2O)[C@](C)(O)C[C@@H](C)CN(C)[C@H](C)[C@@H](O)[C@]1(C)O [Azithromycin] (20 µM) | active
CCN(CC)CCNC(C(=O)OCCC(C)C)c1ccccc1 (stereo unspecified) [Camylofine chlorhydrate] (20 µM) | inactive
CCCCOC(=O)c1ccc(O)cc1 [Butylparaben] (20 µM) | inactive
COc1ccc2[nH]c([S+]([O-])Cc3ncc(C)c(OC)c3C)nc2n1 (stereo unspecified) [Tenatoprazole] (20 µM) | inactive
CO[C@@]1(NC(=O)CSCC#N)C(=O)N2C(C(=O)O)=C(CSc3nnnn3C)CS[C@@H]21 [Cefmetazole sodium salt] (20 µM) | inactive
Nc1c(Br)cc(Br)cc1CN[C@H]1CC[C@H](O)CC1 [Ambroxol hydrochloride] (20 µM) | inactive
CCN(CC)CCOC(=O)C(c1ccccc1)C1CCCCC1 (stereo unspecified) [Drofenine hydrochloride] (20 µM) | inactive
OC[C@H]1O[C@@H](n2cnc3cncnc32)[C@H](O)[C@@H]1O [Nebularine] (20 µM) | inactive
CCN(CC)C(=O)N1CCN(C)CC1 [Diethylcarbamazine citrate] (20 µM) | inactive
CCC1NC(=O)c2cc(S(N)(=O)=O)c(Cl)cc2N1 (stereo unspecified) [Quinethazone] (20 µM) | inactive

* * *

# Tested on: Clostridium sporogenes DSM 1664
# procedure.text: fold change of Tryptamine concentration vs plate DMSO controls (fold change (ratio)); higher = more amine produced, active = hit call of the paper (significant change in both replicates, either direction)
# cond: incubation time: 27 h, anaerobic, 37 °C
Structures can show the parent of a compound that is named as a salt.
Reported fold change of Tryptamine concentration values are given for each entry in this list.

compound | measured.target | fold change of Tryptamine concentration
CCCCOc1cc(C(=O)OCCN(CC)CC)ccc1N [Benoxinate hydrochloride] (20 µM) | Clostridium sporogenes DSM 1664 | 0.997
CN1CCC[C@@H]1CCO[C@](C)(c1ccccc1)c1ccc(Cl)cc1 [Clemastine fumarate] (20 µM) | Clostridium sporogenes DSM 1664 | 1
CN(C)C(=N)NC(=N)N [Metformin hydrochloride] (20 µM) | Clostridium sporogenes DSM 1664 | 1
Nc1ncnc2c1ncn2C1OC(COP(=O)(O)O)C(O)C1O (stereo not given) [Adenosine 5'-monophosphate monohydrate] (20 µM) | Clostridium sporogenes DSM 1664 | 1.01
Cc1cccc(C)c1OCC(C)N (stereo not given) [Mexiletine hydrochloride] (20 µM) | Clostridium sporogenes DSM 1664 | 0.991
